Reference source: patent US20130330346A1

Item-by-item account of FLIPR IC50 (GRO-α induced calcium release)
Biological target: T1, Human CXCR2 (human, UniProt P25025 1-360)
T1 sequence: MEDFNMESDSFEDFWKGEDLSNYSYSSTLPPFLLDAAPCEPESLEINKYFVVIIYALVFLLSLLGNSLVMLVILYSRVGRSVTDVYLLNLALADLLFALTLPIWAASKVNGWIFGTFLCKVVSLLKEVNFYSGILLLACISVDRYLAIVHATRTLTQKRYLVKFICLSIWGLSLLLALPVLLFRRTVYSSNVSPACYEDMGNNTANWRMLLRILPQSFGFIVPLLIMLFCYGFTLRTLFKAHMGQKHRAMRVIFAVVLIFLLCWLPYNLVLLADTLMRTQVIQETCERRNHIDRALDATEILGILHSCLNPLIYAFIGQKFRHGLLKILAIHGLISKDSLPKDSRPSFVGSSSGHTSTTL
Test: cell-based or functional assay
outcome.measure: FLIPR IC50 (GRO-α induced calcium release)

binder	result
CXCR20030 (other, Biparatopic: two VHH joined by a GlySer linker; also called 163D2-35GS-54B12; 163D2-54B12; not shown: C-terminal c-myc tag and His6 tag coded by pAX100) EVQLVESGGGLVQAGGSLRLSCAASGRTFSDYAMGWFRQAPGKEREFVAAITWNGGRVFYTASVKGRFTISRDNAKNTMYLQMNSLKPEDTAVYYCAADKDRRTDYLGHPVAYWGQGTQVTVSSGGGGSGGGGSGGGGSGGGGSGGGGSGGGGSGGGGSEVQLVESGGGLVQAGGSLTLSCAVSGSTFRINTMGWYRRAPGKQRELVAARDRGGYINYVDSVKGRFTVSRDNAKPTMYLQMNSLKPEDTAVYYCHAGTQDRTGRNFDRWGQGTQVTVSS	11.8 nM
CXCR20029 (other, Biparatopic: two VHH joined by a GlySer linker; also called 163E3-35GS-54B12; not shown: C-terminal c-myc tag and His6 tag coded by pAX100) EVQLVESGGGLVQPGGSLRLSCVASGRIFSSNAMGWFRQAPGKEREFVAAITWRSGGSAYYADSAKGRFTISRDNAKNTVYLQMNSLKPEDTAVYYCAAGGSSWLSFPPDYWGQGTQVTVSSGGGGSGGGGSGGGGSGGGGSGGGGSGGGGSGGGGSEVQLVESGGGLVQAGGSLTLSCAVSGSTFRINTMGWYRRAPGKQRELVAARDRGGYINYVDSVKGRFTVSRDNAKPTMYLQMNSLKPEDTAVYYCHAGTQDRTGRNFDRWGQGTQVTVSS	17.1 nM
CXCR20026 (bispecific antibody, Biparatopic: two VHH joined by a GlySer linker; also called 163E3-35GS-127D1; 163E3-127D1; not shown: C-terminal c-myc tag and His6 tag coded by pAX100) EVQLVESGGGLVQPGGSLRLSCVASGRIFSSNAMGWFRQAPGKEREFVAAITWRSGGSAYYADSAKGRFTISRDNAKNTVYLQMNSLKPEDTAVYYCAAGGSSWLSFPPDYWGQGTQVTVSSGGGGSGGGGSGGGGSGGGGSGGGGSGGGGSGGGGSEVQLVESGGGLVQAGESLRLSCAASGSTFDFKVMGWYRQPPGKQREGVAAIRLSGNMHYAESVKGRFTISKANAKNTVYLQMNSLRPEDTAVYYCKVNIRGQDYWGQGTQVTVSS	12.3 nM
